Cited source for all entries: paper PMC6887663

tested on: CYP3A4/5; assay: CYP3A4/5 inhibition in human liver microsomes; type: biochemical; settings: human, human liver microsomes, probe testosterone, Inhibition of formation of 6β‐hydroxytestosterone, Mean, DMF 666 μmol/L; 30 min PI + cofactor; testosterone; HLM
Measurement type: inhibition at 10 min, 666 μmol/L
Number first, unit second: that is the form wanted.

Entry COC(=O)/C=C/C(=O)OC [DMF, dimethylfumarate] ; assay system CYP3A4/5; inhibition at 10 min, 666 μmol/L recorded at 35.5%

====

target: P‐gp (Homo sapiens, UniProt P08183); assay: P-gp inhibition, [3H]digoxin efflux in Caco-2 cells
Sequence (P08183 whole entry): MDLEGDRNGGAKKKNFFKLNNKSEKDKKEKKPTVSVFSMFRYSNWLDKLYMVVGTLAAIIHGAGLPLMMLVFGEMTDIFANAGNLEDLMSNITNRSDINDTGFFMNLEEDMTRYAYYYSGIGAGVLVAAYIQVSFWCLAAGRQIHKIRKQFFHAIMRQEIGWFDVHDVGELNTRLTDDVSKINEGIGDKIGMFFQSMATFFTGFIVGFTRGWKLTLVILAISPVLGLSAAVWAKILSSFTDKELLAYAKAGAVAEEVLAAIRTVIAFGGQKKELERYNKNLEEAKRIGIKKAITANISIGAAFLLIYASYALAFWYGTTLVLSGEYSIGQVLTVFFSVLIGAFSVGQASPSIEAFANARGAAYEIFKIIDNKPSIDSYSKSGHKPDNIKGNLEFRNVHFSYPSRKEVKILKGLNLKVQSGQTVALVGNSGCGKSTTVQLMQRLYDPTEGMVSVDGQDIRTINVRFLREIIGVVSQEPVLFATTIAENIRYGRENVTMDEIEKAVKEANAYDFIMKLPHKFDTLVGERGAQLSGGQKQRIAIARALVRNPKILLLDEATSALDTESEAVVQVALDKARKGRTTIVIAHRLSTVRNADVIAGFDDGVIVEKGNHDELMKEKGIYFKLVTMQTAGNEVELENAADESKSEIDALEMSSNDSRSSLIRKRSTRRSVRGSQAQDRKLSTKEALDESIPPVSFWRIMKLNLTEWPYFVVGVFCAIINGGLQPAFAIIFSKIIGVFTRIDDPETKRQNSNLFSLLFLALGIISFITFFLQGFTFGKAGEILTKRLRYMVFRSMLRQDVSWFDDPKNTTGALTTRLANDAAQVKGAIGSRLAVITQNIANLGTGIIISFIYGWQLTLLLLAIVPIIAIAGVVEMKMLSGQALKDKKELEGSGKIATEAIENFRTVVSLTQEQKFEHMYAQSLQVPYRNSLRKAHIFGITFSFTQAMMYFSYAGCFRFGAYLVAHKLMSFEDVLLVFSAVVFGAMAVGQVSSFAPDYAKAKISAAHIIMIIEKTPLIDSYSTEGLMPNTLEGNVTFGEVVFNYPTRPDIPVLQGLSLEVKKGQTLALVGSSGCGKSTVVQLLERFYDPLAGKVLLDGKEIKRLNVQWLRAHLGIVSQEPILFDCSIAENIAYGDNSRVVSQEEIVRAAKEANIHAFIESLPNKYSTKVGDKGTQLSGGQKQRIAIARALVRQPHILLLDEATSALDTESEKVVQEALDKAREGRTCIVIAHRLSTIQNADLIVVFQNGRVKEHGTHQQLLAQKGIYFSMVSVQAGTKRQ
Measurement type: pIC50
Convention used: pIC50 is expressed as -log10 of the molar concentration.

Reported pIC50 ( COC(=O)/C=C/C(=O)OC [DMF, dimethylfumarate] ) = 2.82

====

target: CYP2D6 (Homo sapiens, UniProt P10635)
Sequence (P10635 whole entry): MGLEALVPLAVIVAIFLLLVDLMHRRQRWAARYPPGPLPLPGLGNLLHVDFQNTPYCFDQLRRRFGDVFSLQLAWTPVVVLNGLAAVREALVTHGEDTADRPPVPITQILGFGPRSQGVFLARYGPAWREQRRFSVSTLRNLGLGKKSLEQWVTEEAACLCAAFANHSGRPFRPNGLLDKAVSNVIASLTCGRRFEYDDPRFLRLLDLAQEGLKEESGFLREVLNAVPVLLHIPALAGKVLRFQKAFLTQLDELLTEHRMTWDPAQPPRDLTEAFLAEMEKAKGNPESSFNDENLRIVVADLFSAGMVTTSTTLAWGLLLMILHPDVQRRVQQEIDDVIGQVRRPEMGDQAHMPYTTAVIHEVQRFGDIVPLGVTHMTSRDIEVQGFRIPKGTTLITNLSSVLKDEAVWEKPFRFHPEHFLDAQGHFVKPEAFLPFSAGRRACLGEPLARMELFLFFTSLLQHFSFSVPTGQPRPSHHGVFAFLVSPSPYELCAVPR
pIC50: −log10 of the molar value.
Measurement type: pIC50

Entry COC(=O)/C=C/C(=O)O [MMF, monomethylfumarate] ; assay system CYP2D6 (Homo sapiens, UniProt P10635); pIC50 recorded at < 3.12
